- Test System: human CXCR4 receptor (Homo sapiens, UniProt P61073)
- Construct: expressed in transfected cells
- Sequence (P61073 whole entry): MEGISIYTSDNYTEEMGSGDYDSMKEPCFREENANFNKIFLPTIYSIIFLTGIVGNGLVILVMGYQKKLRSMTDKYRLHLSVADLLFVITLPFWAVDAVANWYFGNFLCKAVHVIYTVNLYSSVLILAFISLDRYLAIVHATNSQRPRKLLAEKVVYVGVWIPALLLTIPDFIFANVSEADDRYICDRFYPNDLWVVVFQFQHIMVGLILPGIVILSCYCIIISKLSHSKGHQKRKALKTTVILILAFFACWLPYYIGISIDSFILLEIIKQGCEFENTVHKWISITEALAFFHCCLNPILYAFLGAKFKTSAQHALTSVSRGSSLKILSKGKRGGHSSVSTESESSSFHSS
- Test Name: Measurement of intracellular Ca+2 responses (FLIPR), antagonism of the SDF-1α response
- Type: cell-based
- Run Parameters: percent antagonism of SDF-1α 1.9 nM (EC65) response; HEK-Gqi5 human CXCR4 cells; value in brackets
- From the text: Measurement of Intracellular Ca^+2 Responses for CXCR4 Compounds HEK-Gqi5 cells stably expressing the human CXCR4 receptor were utilized for these studies. […] Extracellular dye was removed by washing the cell plates four times prior to placing the plates in the FLIPR (Fluorometric Imaging Plate Reader, Molecular Devices). […] Fluorescence measurements were also taken after this second drug addition and were used to determine the ability of the test compounds to antagonize the SDF-1α response. […]
Measured Endpoint: CXCR4 (% Inh) (%)
Only the number, expressed in %, is required.

Please review the following examples before continuing.
| Compound | Test System | Value |
| --- | --- | --- |
| CCN(CC)CCNc1nc(NC2CCN(Cc3ccccc3N(C)C)CC2)c2cc(OC)c(OC)cc2n1 [Compound 32] | human CXCR4 receptor (Homo sapiens, UniProt P61073) | 90 |
| COc1cccc(N(C)C)c1CN1CCC(Nc2nc(NCC[C@@H]3CCCN3)nc3ccccc23)CC1 [Compound 115] | human CXCR4 receptor (Homo sapiens, UniProt P61073) | 95 |
| COc1cccc(N(C)C)c1CN1CCC(Nc2nc(NCC[C@H]3CCCN3)nc3ccccc23)CC1 [Compound 117] | human CXCR4 receptor (Homo sapiens, UniProt P61073) | 95 |
| CCN(CC)CCNc1nc(NC2CCN(Cc3ccccc3N(C)C)CC2)c2ccccc2n1 [Compound 36] | human CXCR4 receptor (Homo sapiens, UniProt P61073) | 90 |
| COc1cccc(N(C)C)c1CN1CCC(Nc2nc(N3CCC3)nc3ccccc23)CC1 [Compound 88] | human CXCR4 receptor (Homo sapiens, UniProt P61073) | 94 |

Kindly note the recorded CXCR4 (% Inh) for CCNCCNc1nc(NC2CCN(Cc3c(OC)cccc3N(C)C)CC2)c2ccccc2n1 [Compound 105] , which is 98

Kindly note the recorded CXCR4 (% Inh) for CCN(CC)CCCNc1nc(NC2CCN(Cc3ccccc3N(C)C)CC2)c2ccccc2n1 [Compound 35] , which is 90
